# credit: patent US20260315434A1

Test: Conversion (release) of prodrug salts to parent compound in HEPES buffer pH 7.4
Assay type: in vitro ADME
Condition Summary: hepes buffer, pH 7.4, HEPES pH 7.4, 37 °C, 1 h; read-out: Release rate (conversion to Compound 1)
Property Name: degraded at 1 h (%)
One number for each entry, in %.

Record excerpt, results attached:
C[C@@]12CC[C@@H]3[C@H](OC(=O)[C@H]3CN3CCC(N4CCOCC4)CC3)[C@@H]3[C@]1(CC[C@@]3(C)O)C2 ... 6.9
CCN1CCN(C[C@@H]2C(=O)O[C@H]3[C@H]2CC[C@@]2(C)C[C@]24CC[C@@](C)(O)[C@H]34)CC1 ... 6.9
C[C@@]12CC[C@@H]3[C@H](OC(=O)[C@H]3CN3CC4CCCC4C3)[C@@H]3[C@]1(CC[C@@]3(C)O)C2 (some centres unmarked) ... 6.9
C[C@@]12CC[C@@H]3[C@H](OC(=O)[C@H]3CN3CCC3)[C@@H]3[C@]1(CC[C@@]3(C)O)C2 ... 6.9
CCCCN(CCCC)C[C@@H]1C(=O)O[C@H]2[C@H]1CC[C@@]1(C)C[C@]13CC[C@@](C)(O)[C@H]23 ... 6.6
CCN(CC)C[C@@H]1C(=O)O[C@H]2[C@H]1CC[C@@]1(C)C[C@]13CC[C@@](C)(O)[C@H]23 ... 6.8

Would you be so kind as to report degraded at 1 h for each listed record?
1. C[C@@]12CC[C@@H]3[C@H](OC(=O)[C@H]3CN3CCCC3)[C@@H]3[C@]1(CC[C@@]3(C)O)C2
2. CCCN(CCC)C[C@@H]1C(=O)O[C@H]2[C@H]1CC[C@@]1(C)C[C@]13CC[C@@](C)(O)[C@H]23
3. CC(C)N(C[C@@H]1C(=O)O[C@H]2[C@H]1CC[C@@]1(C)C[C@]13CC[C@@](C)(O)[C@H]23)C(C)C
4. C[C@@]12CC[C@@H]3[C@H](OC(=O)[C@H]3CN3CCOCC3)[C@@H]3[C@]1(CC[C@@]3(C)O)C2
5. C[C@@]12CC[C@@H]3[C@H](OC(=O)[C@H]3CN3CCC4(CCCC4)CC3)[C@@H]3[C@]1(CC[C@@]3(C)O)C2
6. C[C@@]12CC[C@@H]3[C@H](OC(=O)[C@H]3CN3CCC(N4CCCCC4)CC3)[C@@H]3[C@]1(CC[C@@]3(C)O)C2
7. C[C@@]12CC[C@@H]3[C@H](OC(=O)[C@H]3CN3CCNCC3)[C@@H]3[C@]1(CC[C@@]3(C)O)C2
8. C[C@@]12CC[C@@H]3[C@H](OC(=O)[C@H]3CN3CCCCCCC3)[C@@H]3[C@]1(CC[C@@]3(C)O)C2

Resp:
[6.4, 6.8, 6.7, 6.8, 7, 6.8, 6.8, 6.9]

Would you be so kind as to report degraded at 1 h for each listed record?
1. C[C@@]12CC[C@@H]3[C@H](OC(=O)[C@H]3CN3CCC4(CC3)CC4)[C@@H]3[C@]1(CC[C@@]3(C)O)C2
2. CCOC(=O)[C@@H]1CCCN1C[C@@H]1C(=O)O[C@H]2[C@H]1CC[C@@]1(C)C[C@]13CC[C@@](C)(O)[C@H]23
3. C[C@@]12CC[C@@H]3[C@H](OC(=O)[C@H]3CN3CCCCC3)[C@@H]3[C@]1(CC[C@@]3(C)O)C2

Resp:
1. 7.2
2. 6.2
3. 6.8

---

Test: Conversion (release) of prodrug salts to parent compound in mouse plasma
Type: in vitro ADME
Condition Summary: mouse, plasma, 37 °C, 12 h, read-out: Release rate (conversion to Compound 83)
Property Name: metabolised at 12 h
State the value with its unit after it.

CC1=C2CC[C@@](C)(OC(=O)N3CCCCC3)[C@@H]2[C@H]2OC(=O)[C@@H](CN3CCCC3)[C@@H]2CC1 ... 53%

Req: If you can, please state the reported metabolised at 12 h value of CC1=C2CC[C@@](C)(OC(=O)N3CCCCC3)[C@@H]2[C@H]2OC(=O)[C@@H](CN(C)C)[C@@H]2CC1 .
Resp: 47.8%

---

Test: Conversion (release) of prodrug salts to parent compound in mouse plasma
Format: in vitro ADME
Condition Summary: 37 °C, 4 h, 240 min
Property Name: Release rate (conversion to Compound 1) (%)
Numbers only, in %.

CN(C)C[C@@H]1C(=O)O[C@H]2[C@H]1CC[C@@]1(C)C[C@]13CC[C@@](C)(O)[C@H]23 [Compound 21] ... 17.9
CN(C)C[C@@H]1C(=O)O[C@H]2[C@H]1CC[C@@]1(C)C[C@]13CC[C@@](C)(O)[C@H]23 [Compound 40] ... 26.8
CN(C)C[C@@H]1C(=O)O[C@H]2[C@H]1CC[C@@]1(C)C[C@]13CC[C@@](C)(O)[C@H]23 [Compound 42] ... 26.2
CN(C)C[C@@H]1C(=O)O[C@H]2[C@H]1CC[C@@]1(C)C[C@]13CC[C@@](C)(O)[C@H]23 [Compound 20] ... 28.6

Req: If you can, please state the reported Release rate (conversion to Compound 1) value of CN(C)C[C@@H]1C(=O)O[C@H]2[C@H]1CC[C@@]1(C)C[C@]13CC[C@@](C)(O)[C@H]23 [Compound 41] .
Resp: 28.0

---

Test: Conversion (release) of prodrug salts to parent compound in HEPES buffer pH 7.4
Type: in vitro ADME
Condition Summary: hepes buffer, pH 7.4, HEPES pH 7.4, 37 °C, 2 h; read-out: Release rate (conversion to Compound 1)
Property Name: degraded at 2 h (%)
One number for each entry, in %.

Would you be so kind as to report degraded at 2 h for each listed record?
1. CCN(CC)C[C@@H]1C(=O)O[C@H]2[C@H]1CC[C@@]1(C)C[C@]13CC[C@@](C)(O)[C@H]23 [Compound 28]
2. C[C@@]12CC[C@@H]3[C@H](OC(=O)[C@H]3CN3CCOCC3)[C@@H]3[C@]1(CC[C@@]3(C)O)C2 [Compound 25]
3. C[C@@]12CC[C@@H]3[C@H](OC(=O)[C@H]3CN3CCCC3)[C@@H]3[C@]1(CC[C@@]3(C)O)C2 [Compound 22]

Resp:
1: 14.5; 2: 14.1; 3: 14.8

Would you be so kind as to report degraded at 2 h for each listed record?
1. C[C@@]12CC[C@@H]3[C@H](OC(=O)[C@H]3CN3CCC4(CC3)CC4)[C@@H]3[C@]1(CC[C@@]3(C)O)C2 [Compound 37]
2. C[C@@]12CC[C@@H]3[C@H](OC(=O)[C@H]3CN3CCC(N4CCOCC4)CC3)[C@@H]3[C@]1(CC[C@@]3(C)O)C2 [Compound 36]
3. C[C@@]12CC[C@@H]3[C@H](OC(=O)[C@H]3CN3CCCCC3)[C@@H]3[C@]1(CC[C@@]3(C)O)C2 [Compound 24]
4. C[C@@]12CC[C@@H]3[C@H](OC(=O)[C@H]3CN3CCCCCCC3)[C@@H]3[C@]1(CC[C@@]3(C)O)C2 [Compound 38]

Resp:
1: 16.8; 2: 14.8; 3: 15.1; 4: 14.8

---

Test: Conversion (release) of prodrug salts to parent compound in mouse plasma
Assay type: in vitro ADME
Condition Summary: 37 °C, 1 h, 60 min
Would you please tag the item 1 when its Release rate (conversion to Compound 1) is 7% or above, and 0 when it is below?

Look over these answered cases.
CN(C)C[C@@H]1C(=O)O[C@H]2[C@H]1CC[C@@]1(C)C[C@]13CC[C@@](C)(O)[C@H]23 [Compound 21] ... 0
CN(C)C[C@@H]1C(=O)O[C@H]2[C@H]1CC[C@@]1(C)C[C@]13CC[C@@](C)(O)[C@H]23 [Compound 42] ... 0
CN(C)C[C@@H]1C(=O)O[C@H]2[C@H]1CC[C@@]1(C)C[C@]13CC[C@@](C)(O)[C@H]23 [Compound 40] ... 0
CN(C)C[C@@H]1C(=O)O[C@H]2[C@H]1CC[C@@]1(C)C[C@]13CC[C@@](C)(O)[C@H]23 [Compound 41] ... 1

Now look at this one.
Req: Could you please find out whether CN(C)C[C@@H]1C(=O)O[C@H]2[C@H]1CC[C@@]1(C)C[C@]13CC[C@@](C)(O)[C@H]23 [Compound 20] has Release rate (conversion to Compound 1) that meets 7% or exceeds it?
Resp: 1

---

Test: Conversion (release) of prodrug salts to parent compound in HEPES buffer pH 7.4
Type: in vitro ADME
Condition Summary: hepes buffer, pH 7.4, HEPES pH 7.4, 37 °C, 4 h; read-out: Release rate (conversion to Compound 1)
Can you tell me degraded at 4 h for the items I'm about to list?
Give bare numbers, in %.

C[C@@]12CC[C@@H]3[C@H](OC(=O)[C@H]3CN3CCC3)[C@@H]3[C@]1(CC[C@@]3(C)O)C2 ... 26
CCN1CCN(C[C@@H]2C(=O)O[C@H]3[C@H]2CC[C@@]2(C)C[C@]24CC[C@@](C)(O)[C@H]34)CC1 ... 27.4
CCOC(=O)[C@@H]1CCCN1C[C@@H]1C(=O)O[C@H]2[C@H]1CC[C@@]1(C)C[C@]13CC[C@@](C)(O)[C@H]23 ... 26.8

Could you now consider this next compound?
Req: If you can, please state the reported degraded at 4 h value of C[C@@]12CC[C@@H]3[C@H](OC(=O)[C@H]3CN3CCCCCCC3)[C@@H]3[C@]1(CC[C@@]3(C)O)C2 .
Resp: 25.4
